System: Colon cancer organoid
testMethodNotes: Identification of compartment-specific drug sensitivities in O06 CRC organoid-stroma F06 CAF co-cultures. Organoid is transduced with Lucferase2-P2A-EGFP lentivirus, fibroblast with Renilla-dsRed lentivirus. Dual-Glo Luciferase assay is used to report viability data.
Type: functional, Homo sapiens
Parameters: dose or concentration left out as unconfirmed
protocolConditions: Transduced with Renilla-dsRed lentivirus
Below, each of the molecules is paired with its reported Cell Viability value.
Write the value in % as a bare number.

Completed entries (count: 5):
* C[C@@H](c1cccc(C#N)c1)n1cc(Cl)cc(C(N)=O)c1=N.Cl | 127.503
* CN(C)C(=O)Cn1cc(-c2nc(C3(c4ccc(-c5cnc(N)nc5)cc4)CC3)no2)cn1 | 73.6279
* Cc1cccc(-c2cnc3occ(-c4ccc(C(=O)O)c(C5CCCC5)c4)c3c2)c1 | 126.561
* CC(=O)Nc1c(F)cc(C(=O)N[C@H]2CC[C@H](O)CC2)cc1O[C@@H](C)c1ccccc1 | 157.689
* Cc1cc(F)c(C(=O)Nc2cccc(-c3nncn3C(C)C)n2)cc1-n1cnc(C2CC2)c1 | 105.018

Prompt: # lookup: Cell Viability of `CCCCNNC(=O)c1ccc(Br)cc1`
Response: 110.004

Prompt: # lookup: Cell Viability of `Cc1ccc(NC(=O)Nc2cc(C(F)(F)F)ccc2F)cc1Nc1ccc2c(c1)NC(=O)/C2=C\c1ccc[nH]1`
Response: 95.0963

Prompt: # lookup: Cell Viability of `Cc1cc2c(cc1N1C(=O)c3cccc4c(CCCO)ccc(c34)C1=O)n(C)c(=O)n2C`
Response: 164.269

Prompt: # lookup: Cell Viability of `COc1cc(C(=O)O)ncc1C#Cc1ccccc1NS(=O)(=O)c1cccc2c(N(C)C)ccnc12`
Response: 64.6541

Prompt: # lookup: Cell Viability of `CC(=O)c1cc(-c2ccccc2OCC2CC2)c2ncccn12`
Response: 181.775

* * *

Below, each of the compounds is paired with its reported Cell Viability value.
Tested on: Colon cancer organoid
testMethodNotes: Identification of compartment-specific drug sensitivities in O20 CRC organoid-stroma F20 CAF co-cultures. Organoid is transduced with Lucferase2-P2A-EGFP lentivirus, fibroblast with Renilla-dsRed lentivirus. Dual-Glo Luciferase assay is used to report viability data.
Type: functional, Homo sapiens
Design: dose or concentration left out as unconfirmed
protocolConditions: Transduced with Lucferase2-P2A-EGFP lentivirus
Write the value in % as a bare number.

Completed entries (count: 3):
* C=CC(=O)Nc1ccc2[nH]c(=O)n(C3CCN(C(=O)c4ccc(-c5nc6cc[nH]c(=O)c6cc5-c5ccccc5)cc4)CC3)c2c1 | 102.668
* Cc1ccc(-c2ccc3c(ccc4sc5c(c43)NC[C@@H](C)NC5=O)n2)cn1 | 154.003
* C[C@@H]1CN(c2cc(-c3nn(C)c4ccc(OC5(C)CC5)cc34)ncn2)C[C@H](C)O1 | 112.711

Now for another entry.
Prompt: # lookup: Cell Viability of `O=C(c1ccc(F)c(F)c1Nc1ccc(I)cc1F)N1CC(O)([C@@H]2CCCCN2)C1`
Response: 4.065

* * *

Below, each of the compounds is paired with its reported Cell Viability value.
Tested on: Colon cancer organoid
testMethodNotes: Identification of compartment-specific drug sensitivities in O20 CRC organoid-stroma F20 CAF co-cultures. Organoid is transduced with Lucferase2-P2A-EGFP lentivirus, fibroblast with Renilla-dsRed lentivirus. Dual-Glo Luciferase assay is used to report viability data.
Type: functional, Homo sapiens
Set-up: dose or concentration left out as unconfirmed
protocolConditions: Transduced with Renilla-dsRed lentivirus
Your answer should be a number followed by the unit of measure.

• CCC(=O)N1CCOc2c(cc(-c3ccc(OC)c(OC)c3)cc2OCC2CCCN(C)C2)C1 (configuration not stated) = 123.175%
• CC(C)(C)c1cc(NC(=O)Nc2ccc(-c3cn4c(n3)sc3cc(OCCN5CCOCC5)ccc34)cc2)no1 = 111.29%
• COCCN1CCC(c2cc(CN(C)C(=O)c3cccc(Oc4ccccc4)c3)ccn2)CC1 = 115.605%
• COc1cc2c(cc1OCCCN1CCCC1)N=C(N)C21CCC1 = 100.254%
• O=C(NC[C@@H]1[C@H]2CN(C(=O)OCc3cc(C(F)(F)F)cc(C(F)(F)F)c3)C[C@@H]12)c1ccc2[nH]nnc2c1 = 115.933%

Prompt: # lookup: Cell Viability of `O=C(O)c1ccc2c(c1)nc(Nc1cccc(Cl)c1)c1ccncc12`
Response: 81.7658%

Prompt: # lookup: Cell Viability of `C[C@@]1(Cc2ccc(C#N)cc2)C(=O)N(c2cc(Cl)cc(Cl)c2)c2ncc(C(=O)NC3(c4nc(C5CCC5)no4)CC3)n21`
Response: 136.535%

Prompt: # lookup: Cell Viability of `CN(C)C(=O)/C(C#N)=C/c1ccc(-c2nc3cnc4[nH]ccc4c3n2C2CCCCC2)o1`
Response: 130.215%

Prompt: # lookup: Cell Viability of `Cc1cc(=O)n(C)c2cc(N3C(=O)CC[C@H](NS(=O)(=O)CC(C)C)[C@H]3c3ccc(Cl)cc3)ccc12`
Response: 166.434%

Prompt: # lookup: Cell Viability of C[C@H]1CC(=O)Nc2cc(C(=O)NCCC3CC3)ccc2N1C(=O)N1CC2CC2C1 (some centres not stated)
Response: 112.87%
